- measured_target: KRAS-WT (Homo sapiens, UniProt P01116)
- Sequence (P01116 with tags, fused parts or gaps isoform P01116-2): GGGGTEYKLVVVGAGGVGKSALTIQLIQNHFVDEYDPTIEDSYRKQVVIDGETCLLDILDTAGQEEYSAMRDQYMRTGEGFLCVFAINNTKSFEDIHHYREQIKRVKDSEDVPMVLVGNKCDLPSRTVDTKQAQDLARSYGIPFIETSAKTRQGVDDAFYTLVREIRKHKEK
- test_name: SOS-catalyzed nucleotide exchange assay (Procedure A, TR-FRET), KRAS-WT
- Format: biochemical
- stated_conditions: nucleotide exchange, read-out: KRAS WT GNE IC50
Hi! Just check whether IC50 is below 70 nM. Below gives fulfilled, equal or above gives not fulfilled.

compound: C[C@@]1(O)COCCN(c2nc(OC[C@]3(CN4CCC4)CC3(F)F)nc3sc4c(-c5c(C6(F)CC6)c(Cl)cc6[nH]ncc56)nccc4c23)C1
cat: fulfilled
//
compound: C[C@@H]1CCCc2cc3[nH]ncc3c(-c3nccc4c3sc3nc(OC[C@@]56CCCN5C[C@H](F)C6)nc(N5CCOC[C@@](C)(O)C5)c34)c21
cat: fulfilled
//
compound: Cc1cc2[nH]ncc2c(-c2nccc3c2sc2nc(OC[C@@]45CCCN4C[C@H](F)C5)nc(N4CCOC[C@@](C)(O)C4)c23)c1C1(C)CC1
cat: fulfilled
//
compound: Cc1cc2[nH]ncc2c(-c2nccn3c2c(Cl)c2nc(OC[C@@]45CCCN4C[C@H](F)C5)nc(N4CCOC[C@@](C)(O)C4)c23)c1C1CC1 (single isomer, unassigned)
cat: fulfilled
//
compound: Cc1cc2[nH]ncc2c(-c2nccc3c2sc2nc(O[C@@H](C)[C@@H]4CCCN4C)nc(N4CCOC[C@@](C)(O)C4)c23)c1C(F)(F)F
cat: not fulfilled
//
compound: C#Cc1c(F)ccc2nc(N)cc(-c3nccc4c3sc3nc(OC[C@@]56CCCN5C[C@H](F)C6)nc(N5CCOC[C@@](C)(O)C5)c34)c12
cat: not fulfilled

###

- measured_target: KRAS G12C (amino acids 1-169) (Homo sapiens, UniProt P01116, G12C)
- Sequence (P01116 with tags, fused parts or gaps isoform P01116-2 G12C): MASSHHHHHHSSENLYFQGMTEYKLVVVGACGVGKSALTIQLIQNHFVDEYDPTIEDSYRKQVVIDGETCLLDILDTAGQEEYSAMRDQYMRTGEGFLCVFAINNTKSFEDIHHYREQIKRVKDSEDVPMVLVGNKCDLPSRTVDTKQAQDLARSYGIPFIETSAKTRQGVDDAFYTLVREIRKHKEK
- test_name: SOS-catalyzed nucleotide exchange assay (Procedure B, BODIPY FL GDP displacement), KRAS G12C
- stated_conditions: read-out: KRAS G12C GNE IC50
reported_endpoint: log10(IC50) (log10 of the value in nM)

molecule: C[C@@]1(O)COCCN(c2nc(OC[C@@]34CCCN3C[C@H](F)C4)nc3sc4c(-c5c6c(cc7[nH]ncc57)CCC6C5CC5)nccc4c23)C1 (stereo partly shown)
data_value: 2.23
//
molecule: COCC1CCc2cc3[nH]ncc3c(-c3nccc4c3sc3nc(OC[C@@]56CCCN5C[C@H](F)C6)nc(N5CCOC[C@@](C)(O)C5)c34)c21 (single isomer, unassigned)
data_value: 0.99
//
molecule: C[C@@]1(O)COCCN(c2nc(OC[C@@]34CCCN3C[C@H](F)C4)nc3sc4c(-c5c(-c6ccco6)c(Cl)cc6[nH]ncc56)nncc4c23)C1
data_value: 0.77
//
molecule: Cc1cc2[nH]ncc2c(-c2nccc3c2sc2nc(OC[C@@]45CCCN4C[C@H](F)C5)nc(N)c23)c1C(F)(F)F
data_value: 3.13
//
molecule: C#Cc1c(Cl)cc2[nH]ncc2c1-c1nccn2c1c(F)c1nc(OC[C@@]34CCCN3C[C@H](F)C4)nc(N3CCOC[C@@](C)(O)C3)c12
data_value: 1.40
//
molecule: CC1c2c(cc3[nH]ncc3c2-c2nccc3c2sc2nc(OC[C@@]45CCCN4C[C@H](F)C5)nc(N4CCOC[C@@](C)(O)C4)c23)C(C)(C)C1(F)F (stereo partly shown)
data_value: 2.82
//
molecule: C#Cc1n[nH]c2cc(C)c(C(F)(F)F)c(-c3nccc4c3sc3nc(OC[C@@]56CCCN5C[C@H](F)C6)nc(N5CCOC[C@@](C)(O)C5)c34)c12
data_value: 2.76
//
molecule: Cc1cc2[nH]ncc2c(-c2nccn3c2c(C)c2nc(OC[C@@]45CCCN4C[C@H](F)C5)nc(N4CCOC[C@@](C)(O)C4)c23)c1C1CC1
data_value: 1.93
//
molecule: C[C@H]1CN2C[C@H](F)C[C@@]2(COc2nc(N3CCOC[C@@](C)(O)C3)c3c(n2)sc2c(-c4c(C5CC5)c(Cl)cc5[nH]ncc45)nccc23)C1
data_value: 1.68
//
molecule: C[C@@]1(O)COCCN(c2nc(OC[C@@]34CCCN3C[C@H](F)C4)nc3sc4c(-c5c6c(cc7[nH]ncc57)CCC6)nccc4c23)C1
data_value: 1.65
//
molecule: C[C@@]1(O)COCCN(c2nc(OC[C@@]34CCCN3C[C@H](F)C4)nc3c(I)c4c(-c5c(C6CC6)c(Cl)cc6[nH]ncc56)nccn4c23)C1
data_value: 3.06
//
molecule: CC1(F)c2c(cc3[nH]ncc3c2-c2nccc3c2sc2nc(OC[C@@]45CCCN4C[C@H](F)C5)nc(N4CCOC[C@@](C)(O)C4)c23)CC1(F)F (single isomer, unassigned)
data_value: 1.72
//
molecule: Cc1cc2[nH]nc(I)c2c(-c2nccc3c2sc2nc(OC[C@@]45CCCN4C[C@H](F)C5)nc(N4CCOC[C@@](C)(O)C4)c23)c1C(F)(F)F
data_value: 3.28
//
molecule: COC1c2c(cc3[nH]ncc3c2-c2nccc3c2sc2nc(OC[C@@]45CCCN4C[C@H](F)C5)nc(N4CCOC[C@@](C)(O)C4)c23)CC1(F)F (stereo partly shown)
data_value: 1.76
//
molecule: Cc1cc2[nH]ncc2c(-c2nccn3c2c(F)c2nc(OC[C@@]45CCCN4C[C@H](F)C5)nc(N4CCOC[C@@](C)(O)C4)c23)c1C1CC1
data_value: 1.03
//
molecule: CCCC1CCc2cc3[nH]ncc3c(-c3nccc4c3sc3nc(OC[C@@]56CCCN5C[C@H](F)C6)nc(N5CCOC[C@@](C)(O)C5)c34)c21 (stereo partly shown)
data_value: 1.96
//
molecule: C[C@@]1(O)COCCN(c2nc(OC[C@@]34CCCN3C[C@H](F)C4)nc3sc4c(-c5c6c(cc7[nH]ncc57)CCC6=O)nccc4c23)C1
data_value: 2.14
//
molecule: C=CC1CCc2cc3[nH]ncc3c(-c3nccc4c3sc3nc(OC[C@@]56CCCN5C[C@H](F)C6)nc(N5CCOC[C@@](C)(O)C5)c34)c21 (single isomer, unassigned)
data_value: 0.85
//
molecule: CC1CC(F)(F)c2cc3[nH]ncc3c(-c3nccc4c3sc3nc(OC[C@@]56CCCN5C[C@H](F)C6)nc(N5CCOC[C@@](C)(O)C5)c34)c21 (stereo partly shown)
data_value: 0.81

Cited source: patent US20260176289A1
